assay overview: inhibitors of Toxoplasma growth in IFN-γ-primed HeLa – cell-based, ME49Luc, luciferase, 72 h, dose response (AID 1259418)
reported conditions: T. gondii ME49Luc in IFN-y HeLa, stronger effect = lower value, -100% = high-dose IFN-γ control wells; at 19.5 µM unless noted
The campaign covered roughly 3,400 compounds. About 840 (25%) were called active. Inconclusive results (about 11%) are left out. The list is a sample of the results. Entries with a potency or affinity are not part of this list.

- structure as smiles: "Cc1cc(N2CCOCC2)nc2ccc(NC(=O)c3cc4ccccc4[nH]3)cc12"
  max activity: "9.53% [at 0.16 µM] (inactive)"
- structure as smiles: "C=CCN1C(=O)CC[C@H]2[C@@H]1CCN2S(=O)(=O)CC"
  max activity: "48.3% (inactive)"
- structure as smiles: "COc1ccc(-n2c(C)cc(CNS(=O)(=O)c3ccc4c(c3)CCC(=O)N4)c2C)cc1"
  max activity: "35.1% (inactive)"
- structure as smiles: "Cc1ccc(C)c(-c2coc(-c3ccc(NC(=O)NCc4cccc(F)c4)cc3)n2)c1"
  max activity: "9.05% (inactive)"
- structure as smiles: "Cc1cc(C)cc(S(=O)(=O)N2CCC3(CC2)NCCN=C3NCc2cccc(F)c2)c1"
  max activity: "-38.9% (inactive)"
- structure as smiles: "Cc1cccc(C(=O)Nc2c(C(=O)NCc3ccccn3)[nH]c3ccccc23)c1"
  max activity: "17.8% [at 2.6 µM] (inactive)"
- structure as smiles: "COc1ccc(-c2cnc3n2CCNC32CCN(C(=O)N3CCOCC3)CC2)cc1"
  max activity: "31.8% (inactive)"
- structure as smiles: "COc1ccccc1N1CCN(c2nc(-c3ccc(Cl)cc3)nc3ccccc23)CC1"
  max activity: "8.55% [at 5 µM] (inactive)"
- structure as smiles: "Cc1nc(CCNC(=O)C2CCN(C(=O)c3cccc(F)c3)CC2)cs1"
  max activity: "-15.3% (inactive)"
- structure as smiles: "COc1ccc(-c2nc(Cn3nnc(-c4nc(-c5ccc(F)cc5)no4)c3C)c(C)o2)cc1"
  max activity: "-9.56% [at 5 µM] (inactive)"

###

assay overview: inhibitors of Toxoplasma growth in IFN-γ-primed HeLa – cell-based, ME49Luc, luciferase, 72 h, dose response (AID 1259418)
reported conditions: T. gondii ME49Luc in IFN-y HeLa, stronger effect = lower value, -100% = high-dose IFN-γ control wells; at 19.5 µM unless noted
Among all 3,400 compounds or so, about 840 (25%) were called active. Inconclusive results (about 11%) are left out. The list is a sample of the results. Measured potencies and affinities stand elsewhere.
measurement name: max activity

- compound: "COCC1CN(C(=O)c2cc(C)on2)Cc2c1cnn2CC1CC1 (stereo not given)"
  assay result: "27.1% (inactive)"
- compound: "Cc1cccc(C(=O)Nc2c(C(=O)NCc3cccnc3)[nH]c3ccc(C)cc23)c1"
  assay result: "28.1% [at 5 µM] (inactive)"
- compound: "Cc1ccc(-c2coc(-c3ccc(NC(=O)Cc4cccs4)cc3)n2)c(C)c1"
  assay result: "116% (inactive)"
- compound: "CCOc1ccccc1-c1nc(CSc2nc3c(c(=O)[nH]2)CN(CCOC)CC3)c(C)o1"
  assay result: "20.2% [at 10 µM] (inactive)"
- compound: "CC(=O)N1Cc2ncn(CC3CC3)c2C(COCC2CCOCC2)C1 (stereo not given)"
  assay result: "8.65% (inactive)"
- compound: "COC(=O)/C=c1\\sc2nc(=O)c(C)nn2c1=O"
  assay result: "25.1% [at 10 µM] (inactive)"
- compound: "Cc1ccc2[nH]c(C(=O)NCc3cccnc3)c(NC(=O)c3ccc(Cl)cc3)c2c1"
  assay result: "-12% [at 10 µM] (inactive)"
- compound: "Cc1ccc(-c2coc(-c3ccc(NC(=O)NCCc4ccccc4)cc3)n2)c(C)c1"
  assay result: "27.7% [at 0.35 µM] (inactive)"
- compound: "Cc1cccc(C(=O)Nc2c(C(=O)NCc3ccccn3)[nH]c3ccc(C)cc23)c1"
  assay result: "14.8% [at 10 µM] (inactive)"
- compound: "Cc1ccc(C(=O)Nc2c(C(=O)NCc3cccnc3)[nH]c3ccc(C)cc23)cc1"
  assay result: "54.9% [at 2.6 µM] (inactive)"

Hello, the source for this data is PubChem BioAssay AID1259418, in case you need it.
